ASSAY SYSTEM: DAT (Rattus norvegicus)
Sequence (P23977 whole entry): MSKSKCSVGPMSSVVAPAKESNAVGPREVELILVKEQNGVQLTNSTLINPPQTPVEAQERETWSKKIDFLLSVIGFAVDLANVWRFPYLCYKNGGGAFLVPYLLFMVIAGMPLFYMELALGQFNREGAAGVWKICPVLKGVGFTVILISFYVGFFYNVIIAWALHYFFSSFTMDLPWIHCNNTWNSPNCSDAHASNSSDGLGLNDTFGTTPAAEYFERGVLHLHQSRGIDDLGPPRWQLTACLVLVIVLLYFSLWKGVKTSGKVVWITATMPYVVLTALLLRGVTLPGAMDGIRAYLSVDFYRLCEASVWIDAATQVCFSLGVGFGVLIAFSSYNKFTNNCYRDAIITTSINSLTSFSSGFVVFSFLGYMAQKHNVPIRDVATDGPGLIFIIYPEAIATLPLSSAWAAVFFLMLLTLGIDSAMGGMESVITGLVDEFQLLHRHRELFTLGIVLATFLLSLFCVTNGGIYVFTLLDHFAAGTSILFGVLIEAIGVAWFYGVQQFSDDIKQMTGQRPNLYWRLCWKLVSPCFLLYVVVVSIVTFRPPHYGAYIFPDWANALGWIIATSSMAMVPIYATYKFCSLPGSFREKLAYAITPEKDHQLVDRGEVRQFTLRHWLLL
PROTOCOL DETAILS: [3H]MPP+ release at DAT in rat brain synaptosomes
Type: biochemical
ASSAY CONDITIONS: read-out: Release at DAT % Emax
READOUT NAME: Emax (%)
Return type: number; implicit unit %.

Check out these entries, answers already filled in.
Cc1ccccc1C1OCCNC1C (stereo not shown) [2-MPM, 3-Methyl-2-(2-methylphenyl)morpholine] | 104
CC1NCCOC1c1ccccc1 (stereo not shown) [Phenmetrazine, 3-methyl-2-phenylmorpholine, reference compound] | 101
Cc1ccc(C2OCCNC2C)cc1 (stereo not shown) [4-MPM, 3-Methyl-2-(4-methylphenyl)morpholine] | 99

Moving on to another compound below.
The compound identified as Cc1cccc(C2OCCNC2C)c1 (stereo not shown) [3-MPM, 3-Methyl-2-(3-methylphenyl)morpholine] registered its Emax at 110
